# Tested on: Buffy C cells
# EXPERIMENTAL PROTOCOL: Survival assay (MTT), Buffy C
# Type: cell-based, human
# ASSAY CONTEXT: Homo sapiens, Normal, Bone Marrow, 72 hours
pIC50: −log10 of the molar value.

{"COMPOUND": "Nc1nc(=O)n([C@H]2C[C@H](O)[C@@H](CO)O2)cc1C=O [2d5fC, 5-formyl-2′-deoxycytidine]", "pIC50": "< 4.60"}
{"COMPOUND": "Nc1nc(=O)n([C@H]2C[C@H](O)[C@@H](CO)O2)cc1CO [2d5hmC, 5-hydroxymethyl-2′-deoxycytidine]", "pIC50": "< 4.60"}

---

# Test system: A375 cells
# EXPERIMENTAL PROTOCOL: Survival assay (MTT), A375
# Assay type: cell-based, human
# ASSAY CONTEXT: A375, Malignant Melanoma; 72 hours, MTT
# Method: Cells were passed between 70 and 90% confluence. Cells were incubated with the drugs for 72 hours.
MEASURED PARAMETER: IC50

{"MOLECULE": "O=c1[nH]cc(F)c(=O)[nH]1 [5fU, 5-flurouracil, reference compound]", "MEASURED PARAMETER": "IC50", "RESULT": "7.87 µM"}

---

# Test system: SK-OV-3 cells
# EXPERIMENTAL PROTOCOL: Survival assay (MTT), SK-OV-3
# Format: cell-based, human
# ASSAY CONTEXT: Homo sapiens; SK-OV-3, Ovarian Adenocarcinoma; 72 hours, MTT

{"COMPOUND": "Nc1nc(=O)n([C@H]2C[C@H](O)[C@@H](CO)O2)cc1C=O [2d5fC, 5-formyl-2′-deoxycytidine]", "TESTED SYSTEM": "SK-OV-3 cells", "IC50": "9.69 µM"}
{"COMPOUND": "Cn1nnc2c(C(N)=O)ncn2c1=O [Temozolomide, reference compound]", "TESTED SYSTEM": "SK-OV-3 cells", "IC50": "> 25 µM"}
{"COMPOUND": "Nc1nc(=O)n([C@H]2C[C@H](O)[C@@H](CO)O2)cc1C(=O)O [2d5caC, 5-carboxy-2′-deoxycytidine, reference compound]", "TESTED SYSTEM": "SK-OV-3 cells", "IC50": "> 25 µM"}
{"COMPOUND": "Nc1nc(=O)n([C@H]2C[C@H](O)[C@@H](CO)O2)cc1CO [2d5hmC, 5-hydroxymethyl-2′-deoxycytidine]", "TESTED SYSTEM": "SK-OV-3 cells", "IC50": "> 25 µM"}

---

# System: G144 cells
# EXPERIMENTAL PROTOCOL: Survival assay (MTT), G144
# Assay type: cell-based, human
# ASSAY CONTEXT: Homo sapiens, G144, Glioma, Grade IV, 72 hours
# Source text: […]
IC50 reference
MEASURED PARAMETER: IC50

{"MOLECULE": "Nc1nc(=O)n([C@H]2C[C@H](O)[C@@H](CO)O2)cc1CO [2d5hmC, 5-hydroxymethyl-2′-deoxycytidine]", "TESTED SYSTEM": "G144 cells", "RESULT": "> 100 µM"}
{"MOLECULE": "Nc1nc(=O)n([C@H]2C[C@H](O)[C@@H](CO)O2)cc1C=O [2d5fC, 5-formyl-2′-deoxycytidine]", "TESTED SYSTEM": "G144 cells", "RESULT": "> 100 µM"}
{"MOLECULE": "Cn1nnc2c(C(N)=O)ncn2c1=O [Temozolomide, reference compound]", "TESTED SYSTEM": "G144 cells", "RESULT": "14.7 µM"}
